These data points were gathered from patent US20100105655A1.

Target: IGFR kinase (Homo sapiens, UniProt P08069)
Construct: purchased Millipore
Sequence (P08069 31-1367): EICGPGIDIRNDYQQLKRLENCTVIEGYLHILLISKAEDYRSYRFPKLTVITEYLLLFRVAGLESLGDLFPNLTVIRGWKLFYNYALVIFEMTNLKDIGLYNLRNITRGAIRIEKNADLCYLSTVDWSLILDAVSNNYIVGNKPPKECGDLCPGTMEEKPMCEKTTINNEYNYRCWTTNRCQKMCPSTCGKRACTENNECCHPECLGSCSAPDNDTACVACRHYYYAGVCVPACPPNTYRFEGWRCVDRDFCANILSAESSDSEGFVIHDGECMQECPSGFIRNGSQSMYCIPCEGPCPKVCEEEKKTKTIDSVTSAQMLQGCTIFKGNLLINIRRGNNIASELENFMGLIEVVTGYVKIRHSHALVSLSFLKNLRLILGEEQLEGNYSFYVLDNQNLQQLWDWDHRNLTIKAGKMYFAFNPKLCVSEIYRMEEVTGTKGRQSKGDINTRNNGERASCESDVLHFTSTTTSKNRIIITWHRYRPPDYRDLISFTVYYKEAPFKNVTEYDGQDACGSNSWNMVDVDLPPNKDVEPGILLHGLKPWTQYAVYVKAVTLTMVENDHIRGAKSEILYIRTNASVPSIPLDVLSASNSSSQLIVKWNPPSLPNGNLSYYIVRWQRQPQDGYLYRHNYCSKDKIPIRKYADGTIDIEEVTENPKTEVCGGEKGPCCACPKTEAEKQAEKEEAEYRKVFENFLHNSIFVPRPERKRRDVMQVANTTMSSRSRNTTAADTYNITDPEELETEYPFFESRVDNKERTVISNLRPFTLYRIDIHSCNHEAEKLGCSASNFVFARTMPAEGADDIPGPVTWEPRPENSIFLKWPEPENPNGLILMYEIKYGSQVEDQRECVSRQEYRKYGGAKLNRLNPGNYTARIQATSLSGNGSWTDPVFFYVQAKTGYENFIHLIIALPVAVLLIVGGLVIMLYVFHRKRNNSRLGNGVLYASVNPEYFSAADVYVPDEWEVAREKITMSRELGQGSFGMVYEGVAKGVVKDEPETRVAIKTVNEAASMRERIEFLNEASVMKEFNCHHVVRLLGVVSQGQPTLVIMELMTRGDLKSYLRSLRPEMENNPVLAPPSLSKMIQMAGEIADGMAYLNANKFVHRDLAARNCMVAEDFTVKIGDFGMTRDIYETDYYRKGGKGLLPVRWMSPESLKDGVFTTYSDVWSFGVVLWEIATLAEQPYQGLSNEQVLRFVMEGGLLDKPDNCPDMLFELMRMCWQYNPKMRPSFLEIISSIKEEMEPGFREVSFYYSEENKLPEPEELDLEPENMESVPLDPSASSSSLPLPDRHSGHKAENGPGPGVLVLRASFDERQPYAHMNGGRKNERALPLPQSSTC
Test: Enzyme assay (c), IGFR kinase, Caliper LabChip
Assay type: biochemical
Settings: 30 nM IGFR kinase, 6 uM ATP, 3 uM peptide mix; read-out: IGFR IC50
measure: log10(IC50) (log10 of the value in nM)
A difference of one corresponds to tenfold IC50; all values are log10 with IC50 in nM.

Prompt: # return recorded log10(IC50) for entry COc1ccc(N2CCC(OC)CC2)cc1Nc1ncc(Cl)c(-c2cnc3ccccn23)n1
Completion: 1.63

Prompt: # return recorded log10(IC50) for entry COc1cc(CC(CO)CO)ccc1Nc1ncc(Cl)c(-c2cnn3ccccc23)n1
Completion: 0.30

Prompt: # return recorded log10(IC50) for entry COc1cc(N2CCN(CC(C)(C)O)CC2)ccc1Nc1ncc(Cl)c(-c2cnc3ccccn23)n1
Completion: 1.00

Prompt: # return recorded log10(IC50) for entry COc1cc(C2CCN(C(=O)[C@@H](C)O)CC2)ccc1Nc1ncc(C)c(-c2cnc3c(F)cccn23)n1
Completion: 1.51

Prompt: # return recorded log10(IC50) for entry COc1cc(CNCCCO)ccc1Nc1ncc(Cl)c(-c2cnc3ccccn23)n1
Completion: 1.30

Prompt: # return recorded log10(IC50) for entry COc1cc(C(=O)N2CCN(CCO)CC2)ccc1Nc1ncc(Cl)c(-c2cnc3ccccn23)n1
Completion: 1.28

Prompt: # return recorded log10(IC50) for entry COc1ccc(N2CCCC2)cc1Nc1ncc(Cl)c(-c2cnc3ccccn23)n1
Completion: 2.49

Prompt: # return recorded log10(IC50) for entry COc1cc(N2CCN(C(=O)[C@H](N)CO)CC2)ccc1Nc1ncc(Cl)c(-c2cnc3ccccn23)n1
Completion: 0.78

----------
For each record, write down the corresponding IC50.
Target: IGFR kinase (Homo sapiens, UniProt P08069)
Construct: purchased Millipore
Assay: Enzyme assay (c), IGFR kinase, Caliper LabChip
Format: biochemical
Details: 30 nM IGFR kinase, 6 uM ATP, 3 uM peptide mix; read-out: IGFR IC50
Return type: number; implicit unit nM.

Prompt: # return recorded IC50 for entry COc1cc(N2CCN(C(C)=O)CC2)ccc1Nc1ncc(C)c(-c2cnc3ccccn23)n1
Completion: 47

Prompt: # return recorded IC50 for entry COc1cc(C2CN(C(=O)[C@@H](C)O)C2)ccc1Nc1ncc(Cl)c(-c2cnn3ccccc23)n1 [Example 135B]
Completion: 8

Prompt: # return recorded IC50 for entry COc1cc(N2CCCC2)ccc1Nc1ncc(Cl)c(-c2cnc3ccccn23)n1
Completion: 0.3

Prompt: # return recorded IC50 for entry COc1cc(OC2CN(C(=O)N(C)CCO)C2)ccc1Nc1ncc(Cl)c(-c2cnc3ccccn23)n1
Completion: 24

Prompt: # return recorded IC50 for entry COc1cc(CN2CCCOCC2)ccc1Nc1ncc(Cl)c(-c2cnc3ccccn23)n1
Completion: 28

Prompt: # return recorded IC50 for entry COc1cc(N2CCN(C(=O)CO)CC2)ccc1Nc1ncc(Cl)c(-c2cnc3c(F)cc(F)cn23)n1
Completion: 7

Prompt: # return recorded IC50 for entry COc1cc(N2CC3CN(CC(=O)N(C)C)CC(C2)O3)ccc1Nc1ncc(Cl)c(-c2cnc3c(F)cccn23)n1
Completion: 7

Prompt: # return recorded IC50 for entry COc1cc(C2CCN(C(=O)[C@@H](C)OC)CC2)ccc1Nc1ncc(Cl)c(-c2cnc3ccccn23)n1
Completion: 5

Prompt: # return recorded IC50 for entry COc1cc(N2CCN(C(=O)N(C)CCO)CC2)ccc1Nc1ncc(Cl)c(-c2cnc3ccccn23)n1
Completion: 9

Prompt: # return recorded IC50 for entry COc1cc(OC2CCN(C(=O)[C@H](C)O)CC2)ccc1Nc1ncc(Cl)c(-c2cnc3ccccn23)n1
Completion: 18

Prompt: # return recorded IC50 for entry COc1cc(N2CCN(C(=O)[C@@H](C)N)CC2)ccc1Nc1ncc(C)c(-c2cnn3ccccc23)n1
Completion: 13

Prompt: # return recorded IC50 for entry COc1cc(N2CCN(C[C@H](C)O)CC2)ccc1Nc1ncc(F)c(-c2cnc3ccccn23)n1
Completion: 34

Prompt: # return recorded IC50 for entry COc1ccc(N2CC3CNCC(C2)O3)cc1Nc1ncc(Cl)c(-c2cnc3c(F)cccn23)n1
Completion: 530

Prompt: # return recorded IC50 for entry COc1cc(N2CCNC(=O)C2)ccc1Nc1ncc(F)c(-c2cnc3ccccn23)n1
Completion: 23

Prompt: # return recorded IC50 for entry CC(=O)N1CCN(c2ccc(Nc3ncc(Cl)c(-c4cnc5ccccn45)n3)c(C)c2)CC1
Completion: 12

Prompt: # return recorded IC50 for entry COc1cc(N2CCN(C(=O)[C@@H](C)N)CC2)ccc1Nc1ncc(Cl)c(-c2cnc3c(F)cc(F)cn23)n1
Completion: 4

Prompt: # return recorded IC50 for entry COc1cc(CC(=O)NC2CCNC2)ccc1Nc1ncc(Cl)c(-c2cnc3ccccn23)n1 (stereo not shown)
Completion: 21

Prompt: # return recorded IC50 for entry COc1cc(N2CCCOCC2)ccc1Nc1ncc(F)c(-c2cnc3ccccn23)n1
Completion: 179

Prompt: # return recorded IC50 for entry COc1cc(OC[C@@H]2CCCN2C(C)=O)ccc1Nc1ncc(Cl)c(-c2cnc3ccccn23)n1
Completion: 32

Prompt: # return recorded IC50 for entry COc1cc(N2CCN(C(=O)[C@@H]3CCC(=O)N3)CC2)ccc1Nc1ncc(Cl)c(-c2cnc3ccccn23)n1
Completion: 8

Prompt: # return recorded IC50 for entry COc1cc(N2CC3CN(CCO)CC(C2)O3)ccc1Nc1ncc(Cl)c(-c2cnc3c(F)cccn23)n1
Completion: 7

Prompt: # return recorded IC50 for entry COc1cc(N2CCN(C(=O)[C@H](C)N)CC2)ccc1Nc1ncc(Cl)c(-c2cnc3cc(C)ccn23)n1
Completion: 5

Prompt: # return recorded IC50 for entry COc1cc(OC[C@H]2CCCN2)ccc1Nc1ncc(Cl)c(-c2cnc3ccccn23)n1
Completion: 12

Prompt: # return recorded IC50 for entry COc1cc(C2CN(C(C)=O)C2)ccc1Nc1ncc(Cl)c(-c2cnc3ccccn23)n1
Completion: 16

Prompt: # return recorded IC50 for entry COc1cc(N2CCN(C(C)=O)C[C@@H](O)C2)ccc1Nc1ncc(Cl)c(-c2cnc3ccccn23)n1
Completion: 24

Prompt: # return recorded IC50 for entry COc1cc(O[C@@H]2CCN(S(C)(=O)=O)C2)ccc1Nc1ncc(Cl)c(-c2cnc3ccccn23)n1
Completion: 18

Prompt: # return recorded IC50 for entry COc1cc(OC2CCN(C(C)=O)CC2)ccc1Nc1ncc(C(F)(F)F)c(-c2cnc3ccccn23)n1
Completion: 36

Prompt: # return recorded IC50 for entry COc1cc(N2CCN(C(CO)CO)CC2)ccc1Nc1ncc(C)c(-c2cnc3ccccn23)n1
Completion: 16

Prompt: # return recorded IC50 for entry COc1ccc(N2CCN(C(N)=O)CC2)cc1Nc1ncc(Cl)c(-c2cnc3ccccn23)n1
Completion: 33

Prompt: # return recorded IC50 for entry CNCC(=O)N1CCC(c2ccc(Nc3ncc(C)c(-c4cnn5ccccc45)n3)c(OC)c2)CC1
Completion: 8

Prompt: # return recorded IC50 for entry COc1cc(N2CCN(CC(=O)N(C)CCO)CC2)ccc1Nc1ncc(Cl)c(-c2cnc3ccccn23)n1
Completion: 7

----------
For each record, write down the corresponding pIC50.
Biological target: IGFR kinase (Homo sapiens)
Construct: purchased Millipore
Test: Enzyme assay (c), IGFR kinase, Caliper LabChip
Format: biochemical
Conditions: 30 nM IGFR kinase, 6 uM ATP, 3 uM peptide mix; read-out: IGFR IC50
Lab note: report pIC50 as minus log10 of the concentration in molar units, number only.

Prompt: # return recorded pIC50 for entry COc1cc(N2CCN(CCO)CC2)ccc1Nc1ncc(C)c(-c2cnc3ccc(F)cn23)n1 [Example 264]
Completion: 7.92

Prompt: # return recorded pIC50 for entry COc1cc(O[C@@H]2CCN(C(=O)C(C)O)C2)ccc1Nc1ncc(Cl)c(-c2cnc3ccccn23)n1 (mixture of isomers) [Example 12]
Completion: 7.66

Prompt: # return recorded pIC50 for entry COc1cc(N2CCN(CC(C)(C)O)CC2)ccc1Nc1ncc(C)c(-c2cnc3ccccn23)n1 [Example 106]
Completion: 7.55

Prompt: # return recorded pIC50 for entry COc1ccc(OC[C@H]2CCCN2)cc1Nc1ncc(Cl)c(-c2cnc3ccccn23)n1 [Example 6.4]
Completion: 7.92

Prompt: # return recorded pIC50 for entry COc1cc(C2CCN(C(=O)[C@@H](C)O)CC2)ccc1Nc1ncc(C)c(-c2cnn3ccccc23)n1 [Example 164]
Completion: 7.82

Prompt: # return recorded pIC50 for entry COc1cc(N2CCNCC2)ccc1Nc1ncc(Cl)c(-c2cnn3ccccc23)n1 [Example 129]
Completion: 8.52

Prompt: # return recorded pIC50 for entry COc1cc(N2CCN(C(=O)[C@@H]3C[C@@H](O)CN3)CC2)ccc1Nc1ncc(Cl)c(-c2cnc3ccccn23)n1 [Example 24.9]
Completion: 8.22

Prompt: # return recorded pIC50 for entry COc1ccc(N2CC[C@H](O)C2)cc1Nc1ncc(Cl)c(-c2cnc3ccccn23)n1 [Example 3.5]
Completion: 7.39

Prompt: # return recorded pIC50 for entry COc1cc(N2CCN(C(=O)[C@H](C)N)CC2)ccc1Nc1ncc(Cl)c(-c2cnn3ccccc23)n1 [Example 132]
Completion: 8.52

Prompt: # return recorded pIC50 for entry COc1cc(C(=O)N2C[C@@H]3C[C@H]2CN3)ccc1Nc1ncc(Cl)c(-c2cnc3ccccn23)n1 [Example 29]
Completion: 7.77

Prompt: # return recorded pIC50 for entry COc1cc(N2CCN(C(=O)N3CCOCC3)CC2)ccc1Nc1ncc(Cl)c(-c2cnc3ccccn23)n1 [Example 46]
Completion: 7.89

Prompt: # return recorded pIC50 for entry COc1cc(N2CC[C@@H](O)C2)ccc1Nc1ncc(Cl)c(-c2cnc3ccccn23)n1 [Example 3.49]
Completion: 7.72

Prompt: # return recorded pIC50 for entry COCCN(C)Cc1ccc(Nc2ncc(Cl)c(-c3cnc4ccccn34)n2)c(OC)c1 [Example 21.13]
Completion: 7.49

Prompt: # return recorded pIC50 for entry COc1cc(N2CCN(C(C)=O)CC2)ccc1Nc1ncc(F)c(-c2cnn3ccccc23)n1 [Example 170]
Completion: 7.17

Prompt: # return recorded pIC50 for entry COc1cc(CN2CCN(C(C)=O)CC2)ccc1Nc1ncc(Cl)c(-c2cnc3ccccn23)n1 [Example 21.6]
Completion: 7.59
